Test system: RARa homodimer (NR concentration 270 nM)
measurement.description: PBM binding z-score (relative to random genomic background probes); higher = stronger binding; sequences stand for … in GC…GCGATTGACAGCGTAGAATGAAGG
Here the recorded PBM binding z-score is given for each entry.
Lab note: jot down the number only; don't add units.

Example results:
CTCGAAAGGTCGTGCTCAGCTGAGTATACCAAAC; 0.13
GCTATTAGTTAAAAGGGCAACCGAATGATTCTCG; 1.2
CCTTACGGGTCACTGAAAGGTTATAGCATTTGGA; 0.617
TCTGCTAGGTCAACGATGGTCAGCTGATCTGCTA; -0.39
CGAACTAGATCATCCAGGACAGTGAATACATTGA; 1.19

Documented PBM binding z-score of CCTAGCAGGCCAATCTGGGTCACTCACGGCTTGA : -0.509

The reported PBM binding z-score of the sequence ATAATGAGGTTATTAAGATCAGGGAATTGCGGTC was 0.951

Looking up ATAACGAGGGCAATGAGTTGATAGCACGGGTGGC , I see its PBM binding z-score listed as -0.438

Query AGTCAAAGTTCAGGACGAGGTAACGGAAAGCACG yields PBM binding z-score of 0.344

Reported PBM binding z-score ( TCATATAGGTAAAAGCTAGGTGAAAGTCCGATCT ) = 0.436

----------
In this section, each of the sequences is paired with its reported PBM binding z-score.
Tested on: RXRa DBDmut IVT, anti-RXR (DBD mutation: RXRa K156A/R161A, NR concentration 90 nM)
measurement.description: PBM binding z-score (relative to random genomic background probes); higher = stronger binding; sequences stand for … in GC…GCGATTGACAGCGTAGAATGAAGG
Please state the value as a number alone, without comment.

Here are 5 sequences together with their reported answers.
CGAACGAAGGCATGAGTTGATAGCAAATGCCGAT; -0.249
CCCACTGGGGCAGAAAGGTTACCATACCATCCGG; -1.65
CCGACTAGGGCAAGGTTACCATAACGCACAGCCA; 0.121
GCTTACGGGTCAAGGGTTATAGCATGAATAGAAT; 1.86
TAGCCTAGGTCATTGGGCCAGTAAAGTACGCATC; 1.61

The recorded PBM binding z-score for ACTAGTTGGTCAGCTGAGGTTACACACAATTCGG is 0.642

Record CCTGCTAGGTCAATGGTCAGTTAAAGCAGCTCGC . Reported PBM binding z-score: 1.99

// PBM binding z-score lookup, sequence = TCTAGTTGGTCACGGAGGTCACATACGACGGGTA , result: 1.16

Consider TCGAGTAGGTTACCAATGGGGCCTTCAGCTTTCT . Its measured PBM binding z-score is 0.173

// recorded PBM binding z-score for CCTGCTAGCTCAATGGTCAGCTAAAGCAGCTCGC : 0.0586

Form field PBM binding z-score, entry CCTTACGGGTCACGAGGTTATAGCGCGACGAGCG : 1.62

Kindly note the recorded PBM binding z-score for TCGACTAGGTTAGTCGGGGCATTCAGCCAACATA , which is 0.284

----------
Tested on: PXR homodimer (NR concentration 270 nM)
measurement.description: PBM binding z-score (relative to random genomic background probes); higher = stronger binding; sequences stand for … in GC…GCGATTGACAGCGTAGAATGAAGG
quantity.measured: PBM binding z-score

Notebook: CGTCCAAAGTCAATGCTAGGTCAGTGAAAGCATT , PBM binding z-score read as -0.027

----------
System: RARb:RXRa (NR concentration 270 nM, RXRa partner concentration 90 nM)
measurement.description: PBM binding z-score (relative to random genomic background probes); higher = stronger binding; sequences stand for … in GC…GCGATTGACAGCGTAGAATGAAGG
Listed below: PBM binding z-score values for each entry.
Just the number, please.

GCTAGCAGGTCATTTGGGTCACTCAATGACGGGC; 3.94
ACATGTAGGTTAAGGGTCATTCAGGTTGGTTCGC; 3.53
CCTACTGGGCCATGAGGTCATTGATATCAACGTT; 2.91
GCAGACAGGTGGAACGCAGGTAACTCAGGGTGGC; -0.55
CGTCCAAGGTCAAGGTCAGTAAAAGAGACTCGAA; 5.53
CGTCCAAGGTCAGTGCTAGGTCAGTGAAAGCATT; 4.79
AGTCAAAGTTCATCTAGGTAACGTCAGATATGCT; 4.96
CAAACTAGGTCGAGAGGTCAAAGTCCGCTTCCCG; 4.24
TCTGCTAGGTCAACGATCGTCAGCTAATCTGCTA; 3.96
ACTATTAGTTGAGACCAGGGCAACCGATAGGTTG; 0.628

For reference, reported PBM binding z-score for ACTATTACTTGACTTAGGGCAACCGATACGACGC stands at 0.876

So, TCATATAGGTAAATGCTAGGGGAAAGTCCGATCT ? Its PBM binding z-score was 0.327

PBM binding z-score for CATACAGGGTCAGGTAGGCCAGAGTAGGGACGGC is 3.73

The value of PBM binding z-score measured for the sequence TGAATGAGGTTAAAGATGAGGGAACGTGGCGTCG turned out to be 2.1

According to the records, this sequence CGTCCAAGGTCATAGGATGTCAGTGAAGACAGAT displays PBM binding z-score of 5.08

Short answer for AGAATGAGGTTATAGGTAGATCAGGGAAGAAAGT : PBM binding z-score was 1.72

----------
Tested on: LXRb homodimer (NR concentration 270 nM)
measurement.description: PBM binding z-score (relative to random genomic background probes); higher = stronger binding; sequences stand for … in GC…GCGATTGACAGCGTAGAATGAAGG
Decision: PBM binding z-score >= -0.1 yields yes (1), all other cases yield no (0).

The examples below pair each entry with its known result.
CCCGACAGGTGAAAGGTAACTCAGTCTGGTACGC; no (0)
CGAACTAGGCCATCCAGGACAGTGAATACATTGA; no (0)
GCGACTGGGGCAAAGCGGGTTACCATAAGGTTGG; no (0)

Q) Is PBM binding z-score at least -0.1? Consider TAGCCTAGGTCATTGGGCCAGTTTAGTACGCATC
A) yes (1)

Q) Record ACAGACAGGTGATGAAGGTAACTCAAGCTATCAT ; criterion: PBM binding z-score no lower than -0.1. Met?
A) no (0)

Q) Confirm if PBM binding z-score reported for the sequence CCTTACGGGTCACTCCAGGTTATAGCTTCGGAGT is -0.1 or above.
A) yes (1)

Q) I'd appreciate it if you could say whether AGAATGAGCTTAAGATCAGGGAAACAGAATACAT has PBM binding z-score at least equal to -0.1.
A) no (0)

Q) Evaluate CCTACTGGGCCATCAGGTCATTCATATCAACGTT : PBM binding z-score at minimum -0.1?
A) yes (1)

Q) Dear colleague, could you confirm whether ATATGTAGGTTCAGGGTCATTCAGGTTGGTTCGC has PBM binding z-score at or above -0.1?
A) yes (1)

Q) In plain terms: is recorded PBM binding z-score at least -0.1 for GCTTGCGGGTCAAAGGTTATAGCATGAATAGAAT ?
A) no (0)

Q) Does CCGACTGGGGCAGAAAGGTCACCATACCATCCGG have a reported PBM binding z-score of at least -0.1?
A) no (0)

Q) API: above_or_equal(metric=PBM binding z-score, cutoff=-0.1) for item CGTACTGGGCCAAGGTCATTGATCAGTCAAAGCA
A) no (0)

----------
System: PPARg:RXRa DBDmut IVT, anti-RXR (DBD mutation: RXRa K156A/R161A, NR concentration 270 nM, RXRa partner concentration 90 nM)
measurement.description: PBM binding z-score (relative to random genomic background probes); higher = stronger binding; sequences stand for … in GC…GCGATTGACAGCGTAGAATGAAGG
Each entry below carries its reported PBM binding z-score.

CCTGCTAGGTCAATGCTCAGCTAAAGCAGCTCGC; 4.63
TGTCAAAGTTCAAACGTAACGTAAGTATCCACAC; 0.502
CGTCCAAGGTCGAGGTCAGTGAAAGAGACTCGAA; 1.1

Entry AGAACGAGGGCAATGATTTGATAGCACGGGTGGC — recorded PBM binding z-score = 3.4

Notebook: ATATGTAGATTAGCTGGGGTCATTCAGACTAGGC , PBM binding z-score read as 1.08

# PBM binding z-score of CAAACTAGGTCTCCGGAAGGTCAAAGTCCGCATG = 5.21

For reference, reported PBM binding z-score for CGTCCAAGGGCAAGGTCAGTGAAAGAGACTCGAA stands at 0.735

For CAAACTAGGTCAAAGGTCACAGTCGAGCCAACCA the sequence record lists PBM binding z-score as 8.58

Record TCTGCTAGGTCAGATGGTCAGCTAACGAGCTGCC , field PBM binding z-score: 2.66
